FYI, the data here is from ChEMBL document CHEMBL1201862.

test system: HCT-116; assay: NCI tumour cell line growth inhibition, 48 h
Calls of active or inactive are those of the source. No stated cut-off is given here; in the data, active = GI50 up to about 1.1 µM and inactive = higher.
Listed here are molecules together with their documented GI50.
Assay Endpoint: GI50

molecule=COc1cc2c(oc(=O)c3c4occc4cc(OC)c23)c2cccc(OCc3ccccc3)c12 result="> 100 µM (inactive)"
molecule="N#CC(C(=O)CCC(=O)Nc1cccc(Cl)c1)c1ccccc1 (centres undefined)" result="> 100 µM (inactive)"
molecule="COc1cc(OC)c2c(c1-c1ccc(C)cc1)CC(C)N(Cc1ccccc1)[C@H]2C (some centres undefined)" result="20.3 µM (inactive)"
molecule=O=C1CCC(=O)N1Sc1ccccc1 result="> 100 µM (inactive)"
molecule="Cc1cccc2[n+]1[C@H]1[C@H]([C@@H]3O[C@H]1c1ccccc13)[S+]([O-])N2 (some centres undefined)" result="30.3 µM (inactive)"
molecule="COc1cc(C2SCC(=O)N2c2ccccn2)cc(OC)c1OC (centres undefined)" result="79.6 µM (inactive)"
molecule="O=C1NN=C(c2ccc(Cl)cc2)CC1C1C(=O)N(c2ccccc2)N=C1c1ccccc1 (centres undefined)" result="19.6 µM (inactive)"
molecule=COc1ccc2c(c1)[n+]([O-])c(-c1ccc(Br)cc1)c(N)[n+]2[O-] result="30.6 µM (inactive)"
molecule="COc1ccc(C2c3cc4c(cc3OC(O)(CO)C2C(=O)O)OCO4)c(OC)c1OC.COc1ccc(C2c3cc4c(cc3OC3(O)COC(=O)C23)OCO4)c(OC)c1OC (centres undefined)" result="> 100 µM (inactive)"

====

system: DMS-114; test: NCI tumour cell line growth inhibition, 48 h
The source made the active and inactive calls. No stated cut-off is given here; in the data, active = GI50 up to about 1.1 µM and inactive = higher.
Outcome codes: Yes (active), No (inactive)

compound=NCCCNc1ccc2c3c(nn2CCNCCO)-c2c(O)ccc(O)c2C(=O)c13 cat=Yes
compound=COc1cc(C2C(C(=O)Nc3ccc([N+](=O)[O-])cc3)=C(C)NC(C)=C2C(=O)Nc2ccc([N+](=O)[O-])cc2)ccc1O cat=No
compound="CC1(C)OC(COCCOCCCCCO)C(COCCOCCCCCO)O1 (centres undefined)" cat=No
compound="CC12Nc3ccccc3C1=C(c1ccccc1)CC1C(=O)OC(=O)C12 (centres undefined)" cat=No
compound=COc1ccc(NC(=O)COC(=O)c2cccc3c(=O)c4ccccc4[nH]c23)cc1 cat=No
compound=O=C1C(c2ccc(Br)cc2)=[N+]([O-])c2ccccc21 cat=No
compound="O=C(N/N=C(/c1nc2ccc(Cl)cc2[nH]c1=O)C(O)c1ccc(Cl)cc1Cl)c1ccncc1 (centres undefined)" cat=No
compound="c1ccc2c(c1)Sc1ccccc1N2C1CN2CCC1CC2 (centres undefined)" cat=No
compound=C=C(CN(C)C)C(=O)c1cc(C)ccc1C cat=No

====

Each record here notes measured GI50.
system: MOLT-4; assay: NCI tumour cell line growth inhibition, 48 h
Calls of active or inactive are those of the source. No stated cut-off is given here; in the data, active = GI50 up to about 1.1 µM and inactive = higher.
Assay Endpoint: GI50

compound=O=C(/C=C\Nc1ccccc1O)C(F)(F)F result="31.7 µM (inactive)"
compound="COc1cc2c(cc1OC)C1c3ccccc3CCN1CCC2.[O-][Cl+3]([O-])([O-])O (stereo not given)" result="> 100 µM (inactive)"
compound=CC(=O)CC1(O)C(=O)c2c(Br)sc(Br)c2C1=O result="32.4 µM (inactive)"
compound="O=C(NC/C=C/Br)NC1CCNc2ccccc21 (stereo not given)" result="56.8 µM (inactive)"
compound=O=C(c1ccccc1)n1cc(-c2ccccc2)c2c(=O)nc[nH]c21 result="> 100 µM (inactive)"
compound=CCOc1ccc(/N=C/c2cccc3cccnc23)cc1 result="45.3 µM (inactive)"
compound="CC12Nc3ccccc3C1=C(c1ccccc1)CC1C(=O)OC(=O)C12 (stereo not given)" result="> 100 µM (inactive)"
compound=CC(C)NC(=O)OCc1c(COC(=O)NC(C)C)c(-c2cc[n+](COC(=O)C(C)C)cc2)n2c1CCC2 result="> 46.9 µM (inactive)"
compound="Cc1cccc2[n+]1[C@H]1[C@H]([C@@H]3O[C@H]1c1ccccc13)[S+]([O-])N2 (stereo not given in full)" result="38.2 µM (inactive)"
compound=CC(=O)Nc1ccc(-c2nnc(SCC(=O)Nc3ccc(C)cc3)o2)cc1 result="32.1 µM (inactive)"

====

test system: SW-620; test: NCI tumour cell line growth inhibition, 48 h
Activity calls are given as the source filed them. Rule as the data show it: active = GI50 up to about 1.1 µM and inactive = higher. Non-standard residues stand in square brackets, D forms with d. Residues, ends and D or L forms follow the SMILES beside them. β3hI = CC[CH](C)[CH](N)CC(=O)O
Assay Endpoint: GI50

molecule=COc1ccc(CCN2CCN(CCCc3ccccc3)CC2)cc1 result="> 100 µM (inactive)"
molecule="CC(=O)OC1COC(N2CCc3cc([N+](=O)[O-])ccc32)C(OC(C)=O)C1OC(C)=O (centres undefined)" result="> 100 µM (inactive)"
molecule="Cc1nn(-c2ccccc2)c2c1C(c1cc3ccccc3nc1Cl)NC(=S)N2 (centres undefined)" result="30.1 µM (inactive)"
molecule="COc1cc(C2SCC(=O)N2c2ccccn2)cc(OC)c1OC (centres undefined)" result="76 µM (inactive)"
molecule=CCN(CC)CCCNc1ncc(C)c2[nH]c3ccncc3c12 result="4.71 µM (inactive)"
molecule="CC(=O)/C=C1/c2ccccc2N(C(C)=O)C1O (centres undefined)" result="> 100 µM (inactive)"
molecule="O=C(N/N=C(/c1nc2ccc(Cl)cc2[nH]c1=O)C(O)c1ccc(Cl)cc1Cl)c1ccncc1 (centres undefined)" result="> 100 µM (inactive)"
molecule=N[C@H]1CCN(c2c(F)cc3c(=O)c(C(=O)O)cn4c3c2Oc2c-4ccc3c2ccc2ccccc23)C1 result="0.276 µM (active)"
molecule="CCC(C)C(CC(=O)N1CCCC1C(=O)NC(C(=O)NC(C(=O)NCC(=O)NC(CC(N)=O)C(=O)NC(C(=O)NC(C(=O)NC(CCCCN)C(N)=O)C(C)CC)C(C)CC)C(C)C)C(C)CC)NC(=O)C(N)C(C)CC (stereo not drawn) (H-I[β3hI]PIVGNIIK-NH2; configuration not given here)" result="> 50 µM (inactive)"
molecule="OC(/C(=N/c1ccccc1)c1ccccc1)c1ccccc1 (centres undefined)" result="10.5 µM (inactive)"
molecule="CCCCCC(O)C(O)CCC[C@H](O)[C@H]1CC[C@H]([C@H]2CC[C@H]([C@H](O)CCCCCCCCCCCCC3=C[C@H](C)OC3=O)O2)O1 (some centres undefined)" result="3.44 µM (inactive)"
molecule=O=C1/C(=C/c2ccc(Cl)cc2)CNC/C1=C\c1ccc(Cl)cc1 result="0.792 µM (active)"
molecule="NC(=S)N/N=C1\\c2ccccc2CCC1CCC1(O)CCc2ccccc2C1=O (centres undefined)" result="28 µM (inactive)"
molecule="O=C1C2=Nc3ccccc3C(O)(C(=O)O)N2c2ccccc21 (centres undefined)" result="19.4 µM (inactive)"
molecule="COc1cc(OC)c2c(c1-c1ccc(C)cc1)CC(C)N(Cc1ccccc1)[C@H]2C (some centres undefined)" result="34.8 µM (inactive)"
molecule=O=C1C=CC(=O)N1n1c(Cc2ccccc2)n[nH]c1=O result="> 100 µM (inactive)"
molecule=CCSSCS(C)(=O)=O result="5.05 µM (inactive)"
molecule="COc1ccc(C2=C(Cl)c3cc(OC)c(OC)cc3C2OC)cc1OC (centres undefined)" result="19.5 µM (inactive)"
molecule=CC[C@H](NC1=C(Cl)C(=O)c2c(O)ccc(O)c2C1=O)C(=O)OC result="5.79 µM (inactive)"

====

tested on: SK-MEL-2; assay: NCI tumour cell line growth inhibition, 48 h
Activity calls are given as the source filed them. Cut-off read from the data, not from the text of the source: active = GI50 up to about 1.1 µM and inactive = higher.
Outcome codes: active, inactive

compound=CC(C)c1ccc(/C=C2\N=C(c3ccc([N+](=O)[O-])cc3)OC2=O)cc1 cat=inactive
compound=CC1=CC(=O)/C(=C/Nc2nc(-c3ccc([N+](=O)[O-])cc3)cs2)C(=O)O1 cat=inactive
compound="C[C@]12CC[C@H](O)C=C1CC[C@@H]1[C@@H]2CC[C@]2(C)C(c3ccc(=O)oc3)CC[C@]12O (stereo partly drawn)" cat=active
compound=N#Cc1ccc(CSC2=C(c3ccc(Cl)cc3)S/C(=C3\SC(SCc4ccc(C#N)cc4)=C(c4ccc(Cl)cc4)S3)S2)cc1 cat=inactive
compound=Cn1cc(C(=O)NCCC(=N)N)cc1NC(=O)C1=[N+](C)C=C(NC(=O)c2cccc(C(=O)NC3=CC(C(=O)Nc4cc(C(=O)NCCC(=N)N)cn4C)=[N+](C)C3)c2)C1 cat=inactive
compound=O=c1[nH]nc(-c2ccccc2)n1/N=C/c1ccc([N+](=O)[O-])cc1 cat=inactive
compound="N#CC(C(=O)CCC(=O)Nc1cccc(Cl)c1)c1ccccc1 (stereo not drawn)" cat=inactive
compound=N#CC(C#N)/N=N/c1ccc(-c2nc3ccccc3o2)cc1 cat=inactive

====

Attribute: GI50
system: RXF 393; test: NCI tumour cell line growth inhibition, 48 h
Active and inactive are the calls of the source. Rule as the data show it: active = GI50 up to about 1.1 µM and inactive = higher.
Assay Endpoint: GI50

compound=c1cc2nnc1SCCSCCSc1ccc(nn1)SCCSCCS2 result="> 100 µM (inactive)"
compound=Nc1nc(-c2ccccc2)c(-c2ccccc2)c(-c2nc(N)nc(-c3ccccc3)c2-c2ccccc2)n1 result="94 µM (inactive)"
compound=Cc1ccccc1NC(=O)Cc1nc2ccccc2s1 result="18.9 µM (inactive)"
compound=COc1cc2c(cc1OCCCC(=O)Nc1cc(C(=O)Nc3cc(C(=O)Nc4cc(C(=O)NCCCN(C)C)n(C)c4)n(C)c3)n(C)c1)N=C[C@@H]1CCCN1C2=O result="1.66 µM (inactive)"
compound=CCCCCC(=O)OCCOCCOCCOCCOCCOCc1ccccc1 result="> 100 µM (inactive)"
compound=CCOC(=O)c1c2c(n(-c3ccc(C)cc3)c1C)-c1ccccc1C(=O)C2(C(=O)OCC)C(=O)OCC result="26.5 µM (inactive)"
compound=[N-]=[N+]=Nc1c(Cl)c(=O)n(-c2ccccc2)c2ccccc12 result="16.4 µM (inactive)"
compound=CN(C)C(=S)SCC(=O)Nc1ccccc1 result="> 100 µM (inactive)"
compound="O=C(N/N=C(/c1nc2ccc(Cl)cc2[nH]c1=O)C(O)c1ccc(Cl)cc1Cl)c1ccncc1 (stereo unspecified)" result="> 100 µM (inactive)"
compound=CC(=O)N1C/C(=C\c2ccc(N(C)C)cc2)C(=O)/C(=C/c2ccc(N(C)C)cc2)C1 result="41.6 µM (inactive)"
compound=COc1ccc(NC(=O)COC(=O)c2cccc3c(=O)c4ccccc4[nH]c23)cc1 result="15.3 µM (inactive)"
compound=O=C(Cc1nc2ccccc2[nH]c1=O)c1c[nH]c2ccccc12 result="17.5 µM (inactive)"
compound="COC(=O)CCC(NC(=S)N/N=C(\\C)c1ccc[nH]1)C(=O)OC (stereo unspecified)" result="> 100 µM (inactive)"
compound=CCc1cccc(CC)c1Nc1nc2c(s1)C(=O)c1ccccc1C2=O result="24.8 µM (inactive)"
compound=Cc1cc2c(c(C(=O)O)c1C)-c1cccc(Cl)c1C2=O result="> 100 µM (inactive)"
compound="CC(C(=O)N1C(=O)N(C(=O)C(C)C(O)c2ccccc2)C2CCCCC21)C(O)c1ccccc1 (stereo unspecified)" result="66.1 µM (inactive)"
compound="CCC(C)NC(=S)N/N=C(\\C)c1nc2cccnc2[nH]1 (stereo unspecified)" result="15.6 µM (inactive)"
compound=NC(=S)N/N=C(\C(=O)Nc1cccc([N+](=O)[O-])c1)c1nc2ccc([N+](=O)[O-])cc2nc1O result="> 100 µM (inactive)"
compound=Cc1ccc(S(=O)(=O)Nc2ccccc2C=O)cc1 result="25.6 µM (inactive)"
compound=COc1ccc(-c2c(CN3CCOCC3)sc3nc4ccccc4n23)cc1 result="8.55 µM (inactive)"
compound="CCCOC(=O)C1C(c2ccc(OC)cc2)NC(c2ccc(OC)cc2)C(C(=O)OCCC)S1(=O)=O (stereo unspecified)" result="> 10 µM (inactive)"
compound=Cc1ccc(S(=O)(=O)SCc2ccccc2)cc1 result="28.4 µM (inactive)"
compound="CC(=O)NC1C(OCc2ccccc2)OC(CO)C(O)C1OCC(=O)N[C@@H](C)C(=O)N[C@H](CCC(=O)NCCCNc1c2ccccc2nc2cccc([N+](=O)[O-])c12)C(N)=O (stereo partly specified)" result="0.0352 µM (active)"
compound=COCCOC1=CC(=O)c2c(O)ccc(O)c2C1=O result="2.19 µM (inactive)"
compound="CCC1(c2ccccc2)C(=O)N=C(c2ccccc2)N1CCc1ccccc1 (stereo unspecified)" result="> 100 µM (inactive)"
compound="Cc1ccc(C)c(NC(=O)C(=O)C2C(=O)N(c3ccccc3)N=C2N)c1 (stereo unspecified)" result="> 100 µM (inactive)"
compound="NC(=O)NCCCC(NC(=O)OCCCCn1ccc(=O)[nH]c1=O)C(=O)O (stereo unspecified)" result="> 100 µM (inactive)"
compound=CC(C)(C)c1cc(Cc2ccc([N+](C)(C)C)cc2)c(O)c(C(C)(C)C)c1 result="16.4 µM (inactive)"
compound=O=C1NC(S(=O)(=O)O)=NNC12c1ccccc1-c1ccccc12 result="> 10 µM (inactive)"
compound=Cc1cc(C)nc(NS(=O)(=O)c2ccc(NNc3c4ccccc4nc4c(C(=O)Nc5ccc(S(=O)(=O)N=C(N)N)cc5)cccc34)cc2)n1 result="> 100 µM (inactive)"
compound=Oc1ccc(Cl)cc1/N=N\c1c(O)ccc2ccccc12 result="> 100 µM (inactive)"
compound="COC(=O)C1(C(=O)OC)N=C(C)OC1/C=C/c1ccccc1 (stereo unspecified)" result="> 100 µM (inactive)"
compound="CCOC1C=CCCO1 (stereo unspecified)" result="> 100 µM (inactive)"
compound=CC(=O)Nc1ccc(-c2nnc(SCC(=O)Nc3ccc(C)cc3)o2)cc1 result="19 µM (inactive)"
compound=CCNC(=S)NNC(=O)CSc1nc2ccc(I)cc2c(=O)n1Cc1ccccc1 result="11.8 µM (inactive)"
compound="O=C(NC/C=C/Br)NC1CCNc2ccccc21 (stereo unspecified)" result="29.2 µM (inactive)"
compound=c1ccc(C(/C(=N/c2ccc(Cc3ccc(/N=C(\C(c4ccccc4)c4ccccc4)N4CC4)cc3)cc2)N2CC2)c2ccccc2)cc1 result="1.09 µM (active)"
compound="CC(Oc1ccc2c(=O)cc(-c3ccccc3)oc2c1)C(=O)O (stereo unspecified)" result="> 100 µM (inactive)"
compound=COc1ccc2c(c1)[n+]([O-])c(-c1ccc(Br)cc1)c(N)[n+]2[O-] result="34.6 µM (inactive)"
compound=CCCSc1ccc2[nH]c(/N=C/c3ccco3)cc2c1 result="22.3 µM (inactive)"
compound=COc1ccc(NC(=S)N/N=C/c2c(C)n(C)n(-c3ccccc3)c2=O)cc1 result="23 µM (inactive)"
